tested on: Saccharomyces cerevisiae; assay: protein stability index of tFT-peptide fusion (C-terminal peptide) (PSI (0-1 scale)); higher = more stable (slower turnover); details: genetic background: das1 deletion; temperature: 37 C
Below is a list of entries, each paired with its recorded protein stability index value.
Respond numerically, and do not add a unit to the figure.

Use these answered entries as a reference point.
| record-sequence | protein stability index |
| --- | --- |
| GRVYLLGLYMSF | 0.525 |
| LYLEAYFCIFHF | 0.422 |
| YFLFRYIVITVF | 0.135 |
| VCVRLVHCLVLV | 0.332 |
| FFFCFFIFCFSL | 0.463 |

Sample `APPSRRLTLRLA` , system: Saccharomyces cerevisiae. Its protein stability index is 0.709

Measured on Saccharomyces cerevisiae, `YPSASLLPLFSC` has a documented protein stability index of 0.748

* * *

test system: Saccharomyces cerevisiae; experiment: protein stability index of tFT-peptide fusion (C-terminal peptide) (PSI (0-1 scale)); higher = more stable (slower turnover); settings: genetic background: wild type; temperature: 37 C
Respond with T for protein stability index values of 0.3 and above, F for values below.

Solved cases (6 shown):
| record-sequence | assigned-category |
| --- | --- |
| VLVLLVCVAALV | F |
| SVVVLHVHVRPP | T |
| RLWLPLSLVLWV | T |
| HYTSFAVPPLVY | T |
| RFHFAAPPHRPS | T |
| IYITFQIYVSDM | F |

In: Hi team, for `RLLLLLTCIIYI` , is the recorded protein stability index at or above 0.3?
Out: F

* * *

test system: Saccharomyces cerevisiae; experiment: protein stability index of tFT-peptide fusion (C-terminal peptide) (PSI (0-1 scale)); higher = more stable (slower turnover); conditions: genetic background: wild type; temperature: 30 C
assay-metric: protein stability index
Give the figure only, with no unit attached.

Use these answered entries as a reference point.
| record-sequence | value-measured |
| --- | --- |
| MVYLSSQYSATT | 0.661 |
| INTVGRCCGLVE | 0.681 |
| SLFLFCLRCLQF | 0.576 |
| GSGRLGGDRVVG | 0.658 |
| VSDLGRFVDRRV | 0.636 |
| VACYVDWSQNHR | 0.728 |
| PTFSPSLPPPRS | 0.369 |
| GYVVVGGGGGLG | 0.717 |

Value of measured protein stability index for the entry `KKKKEKKYKERY` : 0.721

Notebook: `GGGGAVRAWGLR` , protein stability index read as 0.736

* * *

system: Saccharomyces cerevisiae; test: protein stability index of tFT-peptide fusion (C-terminal peptide) (PSI (0-1 scale)); higher = more stable (slower turnover); settings: genetic background: wild type; temperature: 30 C
// protein stability index lookup, one value per entry
Returns: the value as a bare number; no unit string appended.

Answered examples (10):
| record-sequence | protein stability index |
| --- | --- |
| IPMTLTTLSTVF [UPA2 C-terminal 12 aa] | 0.628 |
| LFTAMRTVLFGK [CBP6 C-terminal 12 aa] | 0.72 |
| NKVEENLEGLYL [RPT2 C-terminal 12 aa] | 0.671 |
| IFMCIILANKHF [YFR052C-A C-terminal 12 aa] | 0.22 |
| PPAGIPPPPPLP [PAN1 C-terminal 12 aa] | 0.711 |
| NGLKYHRGHSTH [SFP1 C-terminal 12 aa] | 0.674 |
| WRKFGINSYSYS [DIA2 C-terminal 12 aa] | 0.759 |
| YASRGTGELWSP [NMD4 C-terminal 12 aa] | 0.714 |
| TKNTCIRRLSNQ [YLR031W C-terminal 12 aa] | 0.698 |
| ELQDALNTELLF [VAC17 C-terminal 12 aa] | 0.699 |

Sure, the documented protein stability index for CFFLRKENGKDE [YLR120W-A C-terminal 12 aa] is 0.687

// protein stability index value for ARVASQLGQKKK [PRO3 C-terminal 12 aa] : 0.684

Sure, the documented protein stability index for MHQYSAIIPSGT [YJL182C C-terminal 12 aa] is 0.603
